# MEASURED_ON: T1, hCMV gH + gL + UL128 + UL130 + UL131A (5-member complex; HEK293T co-transfectant) (hCMV, UniProt P12824 24-743; P16832 31-278; P16837 1-171; P16772 1-214)
# T1 construct: whole, on cells; in the functional rows it stands for the complex on virions or transduced cells of the strain or isolate named in the readout; also called gH/gL/UL128-131A complex; pentameric complex
# ASSAY: cell competition; competitor 8J16-biotin
PROPERTY_LABEL: Inhibition of binding (%)
// return numeric value only (unit: %, not printed)

Task: Supply recorded Inhibition of binding (%) for 8C15 (antibody, V domains shown, human IgG; also called 8C15-biotin) VH: QVQLQESGPGLVKPSETLSLTCTVSGGSIRSYYWSWIRQPPGKGLEWIGHIYYSGNTNYSPSLQSRVTISLDTPKNQFSLRLSSVTAADTAVYYCARHDVIVVRGVFDVWGQGTVVTVSS VL: QSALTQPASVSGSPGQSITISCTGTSSDIGTYNLVSWYQQHPGKAPKVLIYDGSKRPSGVSSRFSASKSGNTASLTISGLQAEDETDYYCCSYAGTSDFFVVFGGGTKLTVL here.
Result: 100

Task: Consider the binder 4I22 (antibody, human IgG1, V domains shown, fully human IgG1 with unaltered Fc; also called 4I22-biotin; 4122) VH: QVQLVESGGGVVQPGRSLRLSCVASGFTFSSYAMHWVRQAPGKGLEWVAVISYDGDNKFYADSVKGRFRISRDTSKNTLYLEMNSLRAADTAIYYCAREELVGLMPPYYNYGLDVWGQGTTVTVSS VL: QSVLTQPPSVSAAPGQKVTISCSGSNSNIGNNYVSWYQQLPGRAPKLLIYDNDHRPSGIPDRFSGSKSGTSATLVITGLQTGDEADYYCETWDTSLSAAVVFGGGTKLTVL . State its measured Inhibition of binding (%).
Result: 0

Task: Give a short answer stating reported Inhibition of binding (%) for 7B13 (antibody, V domains shown, human IgG) VH: QVQLVESGGGVVQPGGSLRLSCAASGFSFSNYGMHWVRQAPGKGLEWVALIPSDGNYQYYTDSVKGRFTVSRDNSRNTLYLQMKSLRAEDTARYHCAHLGGGLFDFWGQGTLVTVSS VL: QSALNQPRSVSGSPGQSVSISCTGSSSDVGGYEFVSWYQHHPGKAPKLIIYDVDKRPSGVPDRFSGSRSGDTASLTISGLQAEDEADYYCYSSADTWVFGGGTKLTVL .
Result: 100
